Target: Bile acid receptor (Homo sapiens)
Assay: qHTS assay for small molecule agonists of farnesoid X receptor signaling (AID 588527);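 further: 0% = vehicle basal and 100% = reference agonist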
Details: HEK293T FXR-UAS-bla, beta-lactamase ratio, 16 h; active compounds read high
Records with an inconclusive call do not appear. Calls of active or inactive are those of the source. The call rests on the fitted dose curve.
Reported activation values for the following molecules.
property: activation

[[record]]
molecule = "CC1CCCCC1NC(=O)Nc1ccccc1 (stereo not drawn)"
property = "activation"
result = "2% (inactive)"

[[record]]
molecule = "C[C@]12CCC(=O)C=C1CC[C@@H]1[C@@H]2[C@@H](O)C[C@]2(C=O)[C@@H](C(=O)CO)CC[C@@H]12"
property = "activation"
result = "1.4% (inactive)"

[[record]]
molecule = "Nc1cccc(N)c1"
property = "activation"
result = "0.315% (inactive)"

[[record]]
molecule = "C=Cc1ccc(C=C)cc1"
property = "activation"
result = "-3.75% (inactive)"

[[record]]
molecule = "[Cu+2].[O-]c1cccc2cccnc12.[O-]c1cccc2cccnc12"
property = "activation"
result = "-9.69% (inactive)"

[[record]]
molecule = "Cc1ccc2ccc3cccc4ccc1c2c34"
property = "activation"
result = "-4.07% (inactive)"

[[record]]
molecule = "CC(N)CN (stereo not drawn)"
property = "activation"
result = "-2.35% (inactive)"

[[record]]
molecule = "CC(C)Cc1nccs1"
property = "activation"
result = "-0.154% (inactive)"

[[record]]
molecule = "c1cc(OCC2CO2)cc(OCC2CO2)c1 (stereo not drawn)"
property = "activation"
result = "0.408% (inactive)"

[[record]]
molecule = "CC[C@H]1CCCC(O[C@H]2CC[C@H](N(C)C)[C@@H](C)O2)[C@@H](C)C(=O)C2=C[C@@H]3[C@@H](C=C[C@@H]4C[C@@H](O[C@@H]5O[C@@H](C)[C@H](OC)[C@@H](OC)[C@H]5OC)C[C@@H]34)[C@@H]2CC(=O)O1 (stereo partly drawn)"
property = "activation"
result = "3.6% (inactive)"

[[record]]
molecule = "ClCc1ccccc1Cl"
property = "activation"
result = "-0.339% (inactive)"

[[record]]
molecule = "CCOC(=O)C(Cl)Cc1cc(-n2nc(C)n(C(F)F)c2=O)c(F)cc1Cl (stereo not drawn)"
property = "activation"
result = "1.1% (inactive)"

[[record]]
molecule = "CC(C)(C)c1ccc(C(=O)O)cc1"
property = "activation"
result = "-9.49% (inactive)"

[[record]]
molecule = "COc1cc(OC)nc(NC(=O)NS(=O)(=O)c2ncccc2C(F)(F)F)n1"
property = "activation"
result = "-0.618% (inactive)"

[[record]]
molecule = "Nc1nc(-c2ccccc2)cs1"
property = "activation"
result = "2.42% (inactive)"

[[record]]
molecule = "CCOc1nc(F)cc2nc(S(=O)(=O)Nc3c(Cl)cccc3Cl)nn12"
property = "activation"
result = "-0.748% (inactive)"

[[record]]
molecule = "O=C(O)C(c1ccc(Cl)cc1)c1ccc(Cl)cc1"
property = "activation"
result = "-2.74% (inactive)"

[[record]]
molecule = "CCC1CO1 (stereo not drawn)"
property = "activation"
result = "-1.53% (inactive)"

[[record]]
molecule = "Cc1ccc2c(c1[N+](=O)[O-])C(=O)c1ccccc1C2=O"
property = "activation"
result = "-4.5% (inactive)"

[[record]]
molecule = "C=C(C)C1CC=C(C)C(OC(C)=O)C1 (stereo not drawn)"
property = "activation"
result = "-0.422% (inactive)"

[[record]]
molecule = "CCNc1nc(NC(C)(C)C)nc(SC)n1"
property = "activation"
result = "4.27% (inactive)"

[[record]]
molecule = "CCOP(OCC)OCC"
property = "activation"
result = "-1.35% (inactive)"

[[record]]
molecule = "NS(=O)(=O)C(F)(F)C(F)(F)C(F)(F)C(F)(F)C(F)(F)C(F)(F)C(F)(F)C(F)(F)F"
property = "activation"
result = "4.62% (inactive)"

[[record]]
molecule = "CC(C)Cc1c(C(=O)O)c(C(F)F)nc(C(F)(F)F)c1C1=NCCS1"
property = "activation"
result = "0.784% (inactive)"

[[record]]
molecule = "CCOP(=S)(OCC)SCn1nnc2ccccc2c1=O"
property = "activation"
result = "3.29% (inactive)"

[[record]]
molecule = "O=CNc1ccccc1"
property = "activation"
result = "-1.29% (inactive)"

[[record]]
molecule = "CC(C)CCC[C@@H](C)[C@H]1CC[C@H]2[C@@H]3CC=C4C[C@@H](O)CC[C@]4(C)[C@H]3CC[C@]12C"
property = "activation"
result = "0.612% (inactive)"

[[record]]
molecule = "C1CCOC1"
property = "activation"
result = "-4.53% (inactive)"

[[record]]
molecule = "Cc1cc2nc(N)sc2cc1C"
property = "activation"
result = "0.811% (inactive)"

[[record]]
molecule = "CCOP(=O)(NC(C)C)Oc1ccc(S(C)(=O)=O)c(C)c1 (stereo not drawn)"
property = "activation"
result = "-2.2% (inactive)"

[[record]]
molecule = "COc1ccc(/C(=C/C(=O)N2CCOCC2)c2ccc(Cl)cc2)cc1OC"
property = "activation"
result = "-0.563% (inactive)"

[[record]]
molecule = "CCC[CH2][Sn]([CH2]CCC)([CH2]CCC)[CH2]CCC"
property = "activation"
result = "3.44% (inactive)"

[[record]]
molecule = "Clc1ccc([C@@]2(Cn3cncn3)C[C@H](Br)CO2)c(Cl)c1"
property = "activation"
result = "-2.3% (inactive)"

[[record]]
molecule = "O=c1[nH]c2ccccc2c(=O)o1"
property = "activation"
result = "0.0754% (inactive)"

[[record]]
molecule = "Cc1ccc(N=Nc2c(O)ccc3ccccc23)c(C)c1"
property = "activation"
result = "-0.864% (inactive)"

[[record]]
molecule = "CCNC(=O)NC(=O)/C(C#N)=N/OC"
property = "activation"
result = "-0.507% (inactive)"

[[record]]
molecule = "CCCCCCCCCCCC#N"
property = "activation"
result = "-2.48% (inactive)"

[[record]]
molecule = "c1ccc(B(c2ccccc2)c2ccccc2)cc1"
property = "activation"
result = "2.92% (inactive)"

[[record]]
molecule = "O=C(O)c1c(Cl)ccc2cc(Cl)cnc12"
property = "activation"
result = "0.431% (inactive)"

[[record]]
molecule = "CCCCCCCCCC(=O)OC"
property = "activation"
result = "-0.517% (inactive)"

[[record]]
molecule = "C[Si](C)(C)O[Si](C)(C)C"
property = "activation"
result = "-0.871% (inactive)"

[[record]]
molecule = "CCCCOCCOCCOC(=O)CCCCC(=O)OCCOCCOCCCC"
property = "activation"
result = "3.42% (inactive)"

[[record]]
molecule = "CC(C)=CCC/C(C)=C\\CO"
property = "activation"
result = "-0.74% (inactive)"

[[record]]
molecule = "NC(N)=S"
property = "activation"
result = "-0.31% (inactive)"

[[record]]
molecule = "CC(C)CCOC(=O)/C=C/c1ccccc1"
property = "activation"
result = "-2.58% (inactive)"

[[record]]
molecule = "CCOc1ccc(C(C)(C)COCc2cccc(Oc3ccccc3)c2)cc1"
property = "activation"
result = "4.53% (inactive)"

[[record]]
molecule = "c1ccc2[nH]cnc2c1"
property = "activation"
result = "-1.83% (inactive)"

[[record]]
molecule = "NN(c1ccccc1)c1ccccc1"
property = "activation"
result = "-1.98% (inactive)"

[[record]]
molecule = "CCOc1cc(OCC)c(C(C)=O)cc1OCC"
property = "activation"
result = "0.582% (inactive)"

[[record]]
molecule = "Nc1ccc(N)c2c1C(=O)c1c(N)ccc(N)c1C2=O"
property = "activation"
result = "-0.332% (inactive)"

[[record]]
molecule = "CC(Oc1ccc(Cl)cc1Cl)C(=O)O (stereo not drawn)"
property = "activation"
result = "-0.107% (inactive)"

[[record]]
molecule = "CNC(=O)Oc1ccc(N(C)C)c(C)c1"
property = "activation"
result = "0.727% (inactive)"

[[record]]
molecule = "COC(=O)c1ccccc1S(=O)(=O)NC(=O)Nc1nc(OC(F)F)cc(OC(F)F)n1"
property = "activation"
result = "2.12% (inactive)"


----------
Test system: TAB113
Test: qHTS profiling for inhibitors of Plasmodium falciparum proliferation (AID 504749); further: nearly all actives have a fitted effect of over 60% in size
Conditions: P. falciparum in erythrocytes, SYBR Green DNA, 72 h; series mostly up to 28.7 µM
Records with an inconclusive call do not appear. Active and inactive are the calls of the source. Calls come from the whole dose curve; as a rule, active = well fitted inhibition curve with a large enough effect; inconclusive = small, poorly fitted or top-dose-only effect; inactive = flat fitted curve, though single readings scatter.
Labels: active, inactive

[[record]]
compound = "C[C@@H](N)[C@@H](O)c1ccc(O)c(O)c1"
answer_label = "inactive"

[[record]]
compound = "CN(C)[C@H]1C(=O)C(C(N)=O)=C(O)[C@]2(O)C(=O)C3=C(O)c4c(O)cccc4[C@@](C)(O)[C@H]3C[C@@H]12"
answer_label = "inactive"

[[record]]
compound = "C[C@@H]1CC[C@H]2[C@@H](C)C(=O)O[C@@H]3OC4(C)CC[C@@H]1C32OO4 (some centres not stated)"
answer_label = "active"

[[record]]
compound = "CC(=O)O[C@H]1C[C@H](O[C@H]2[C@@H](O)CC(O[C@H]3[C@@H](O)C[C@H](O[C@H]4CC[C@@]5(C)[C@H](CC[C@@H]6[C@@H]5CC[C@]5(C)[C@@H](C7=CC(=O)OC7)CC[C@]65O)C4)O[C@@H]3C)O[C@@H]2C)O[C@H](C)[C@H]1O[C@@H]1O[C@H](CO)[C@@H](O)[C@H](O)[C@H]1O (some centres not stated)"
answer_label = "inactive"

[[record]]
compound = "C=C1Nc2ccccc2C(=O)N1c1ccccc1C"
answer_label = "inactive"

[[record]]
compound = "CCCCCc1cc(O)c2c(c1)OC(C)(C)C1CC=C(C)CC21 (configuration not stated)"
answer_label = "active"

[[record]]
compound = "C#C[C@]1(O)CC[C@H]2[C@@H]3CCC4=CC(=O)CCC4(C)[C@H]3CCC21C (some centres not stated)"
answer_label = "inactive"

